Below: a set of entries, each annotated with reported growth.
Test system: PC-3 prostate
experiment.description: NCI-60 one-dose screen, 48 h (100 = growth as untreated, 0 = no growth, -100 = all killed)
recorded.conditions: 10 µM
Compounds without any hit were thinned out: in the full panel of roughly 83,000, 20% have a hit.
quantity.name: growth (%)

- molecule: "CC1=C2C(=C[C@@](C)(COS(C)(=O)=O)[C@@H]2O)C(=O)[C@](C)(O)C12CC2"
  value.measured: 6.69
- molecule: "CC1=C[C@H]2O[C@@H]3C[C@@H](O)[C@](C)([C@@]2(C)CC1)[C@@]31CO1"
  value.measured: 31.5
- molecule: "C[C@@H]1C[C@H]2C(=O)O[C@@H](C)C(NC(=O)[C@H](Cc3cc(F)cc(F)c3)NC(=O)Nc3ccc(OS(=O)(=O)F)cc3)C(=O)N3CCC[C@H]3C(=O)N3CCO[C@H](C)[C@H]3C(=O)N[C@@H](CO)C(=O)N2C1 (some centres undefined)"
  value.measured: 19.9
- molecule: "CC1=C(CCC=NNC(N)=O)C2=C(C)C3(CC3)[C@@](C)(O)C(=O)C2=C1"
  value.measured: 1.22
- molecule: "CN1C(=O)[C@]23SSC1(C)C(=O)N2[C@H]1Nc2ccccc2C1([C@@]12c4ccccc4N[C@@H]1N1C(=O)C4(C)SS[C@]1(C(=O)N4C)[C@H]2O)[C@@H]3O (some centres undefined)"
  value.measured: -79.9
- molecule: "CC1=C[C@H]2O[C@@H]3C[C@H]4OC(=O)/C=C\\C=C\\[C@H]([C@@H](C)O)OCC/C(C)=C/C(=O)OC[C@@]2(CC1)[C@]4(C)[C@]31CO1"
  value.measured: -23.9
- molecule: "COC(=O)[C@H]1[C@@H](O)[C@@]2(O)c3c(OC)cc(OC)cc3O[C@@]2(c2ccc(OC)cc2)[C@@H]1c1ccccc1"
  value.measured: -7.51
- molecule: "CC(=O)O[C@@H]1C[C@H]2O[C@@H]3C=C(C)CC[C@]3(C)[C@]1(C)[C@]21CO1"
  value.measured: 24.8
- molecule: "NC1CCc2cc(O)c(O)cc2C1 (centres undefined)"
  value.measured: 76.1
- molecule: "CC(=O)O[C@@H]1[C@@H]2O[C@H]2[C@@](C)(O)C(=O)[C@@H](C)C/C=C/[C@H]2[C@@H]3O[C@]3(C)[C@@H](C)C3[C@H](Cc4ccccc4)NC(=O)[C@@]312 (some centres undefined)"
  value.measured: 72.3
- molecule: "CC1=C2C(=C[C@@](C)(C=O)[C@@H]2O)C(=O)[C@](C)(O)C12CC2"
  value.measured: 6.53
- molecule: "Cc1ccc(CNc2nc3ccc(OC/C(=C/F)CN)cc3o2)cn1"
  value.measured: 98.3
- molecule: "CC1=C[C@H]2O[C@@H]3C[C@H]4OC(=O)/C=C\\C=C\\[C@H]([C@@H](C)O)OCC[C@@H](C)[C@H](O)C(=O)OC[C@@]2(CC1)[C@]4(C)[C@]31CO1"
  value.measured: -22.9
- molecule: "COC1[C@@H]2C[C@H]3C(C)(C)O[C@@](C/C=C(/C)C(=O)O)(C2=O)[C@]32Oc3c(CC=C(C)C)c4c(c(O)c3C(=O)[C@H]12)C=CC(C)(C)O4 (some centres undefined)"
  value.measured: -18.4
